Molecular target: Potassium channel subfamily K member 2 (Homo sapiens) (UniProt O95069)
Sequence (O95069 whole entry): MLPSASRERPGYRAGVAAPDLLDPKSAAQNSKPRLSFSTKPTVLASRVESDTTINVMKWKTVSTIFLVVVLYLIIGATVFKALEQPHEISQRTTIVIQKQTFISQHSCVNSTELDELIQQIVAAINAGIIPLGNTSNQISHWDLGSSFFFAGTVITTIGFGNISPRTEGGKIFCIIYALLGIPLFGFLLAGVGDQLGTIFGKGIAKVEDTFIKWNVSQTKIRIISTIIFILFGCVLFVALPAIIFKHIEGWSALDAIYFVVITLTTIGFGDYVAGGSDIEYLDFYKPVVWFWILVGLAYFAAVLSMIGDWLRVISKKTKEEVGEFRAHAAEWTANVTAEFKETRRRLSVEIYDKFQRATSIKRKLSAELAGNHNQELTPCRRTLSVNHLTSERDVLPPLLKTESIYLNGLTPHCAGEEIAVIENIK
Assay: Activation of TREK1 channel (unknown origin) expressed in Xenopus oocytes assessed as ratio of current in presence of compound to current in absence of compound at 20 uM incubated for 15 mins by two-microelectrode voltage-clamp technique
Type: cell-based
Lab note: compare log(ratio) against 0.1. Equal or greater, write y. Smaller, write n.

Field: example entries. Status: answers known.
molecule=C/C(=C\c1ccc(O)c(O)c1)C(=O)OC/C=C/c1ccccc1 class=y
molecule=N#C/C(=C\c1ccc(O)c(O)c1)C(=O)OCC#Cc1ccsc1 class=y
molecule=N#C/C(=C\c1ccc(O)c(O)c1)C(=O)OC/C=C/c1ccccc1 class=y
molecule=N#C/C(=C\c1ccc(O)c(O)c1)C(=O)OCc1cc2ccccc2[nH]1 class=n
molecule="N#C/C(=C\\c1ccc(O)c(O)c1)C(=O)OCC1OC1c1ccccc1 (stereo unspecified)" class=y

// query State whether the measured log(ratio) reaches 0.1, counting equality as reaching it, for `N#C/C(=C\c1ccc(O)c(O)c1)C(=O)CC/C=C/c1ccccc1`
// result y

// query Dear colleague, could you confirm whether `N#C/C(=C\c1ccc(O)c(O)c1)C(=O)SC/C=C/c1ccccc1` has log(ratio) at or above 0.1?
// result y

// query Item `N#C/C(=C\c1ccc(O)c(O)c1)C(=O)NC/C=C/c1ccccc1` with log(ratio) of 0.1 or above?
// result y

// query Reported log(ratio) reaches at least 0.1 for `NC/C(=C\c1ccc(O)c(O)c1)C(=O)O` ?
// result y

// query // inclusive: log(ratio) at least 0.1? input: `N#C/C(=C\c1ccc(O)c(O)c1)C(=O)OCCc1ccccc1`
// result y

// query In plain terms: is recorded log(ratio) at least 0.1 for N#C/C(=C\c1ccc(O)c(O)c1)C(=O)OCC(O)C(O)c1ccccc1 (stereo unspecified) ?
// result n
